test: PET hydrolysis, aromatic products released after 48 h (umol product/mg enzyme); higher = more PET depolymerization activity; settings: substrate: cryPow; 40 °C; pH 7.5

SEQUENCE ENTRY	PET hydrolysis
ADNPYQRGPDPTAASIAAVTGPFATASVTVPRGNGFGGGVIYYPTDTSQGTFGGIAISPGLNGTWPGIAWLGPRLASQGFVVFGIETNNLNDSPTSRGTQLLAALDYLTGSSSVRTRVDAGRLAVAGHSMGGGGALDAALRRPSLRATIGNAPHLPSGSLANDRVPTLIYAMQNDTLVPPSRLTSLYNTVPATTERGYLEITGAGHNYIGQPSTILARTMIPWLKIFVDDDARYSQFLCPLTDRSGISQYQSSCPLITTSPTTGPTAQPTTAAPTTTPTTPPVGGPCEATHRTVNSWSGGYQGEVTVRAGSAAINGWTVSWTLGSGQTINQVWGGALTASGTAATVRNETWNGPVAAGASTTFGYIATGNAPTQPLACSAR [ESM060]	38

====

test: PET hydrolysis, aromatic products released after 48 h (umol product/mg enzyme); higher = more PET depolymerization activity; settings: substrate: cryPow; 60 °C; pH 4.5

SEQUENCE ENTRY	PET hydrolysis
GRVMAASDSGTAADERVYAEPSVDPASVGSAGRNPYERGPEPTLASVAAEYGPFDTDQLTVPPGHGFNGGYIYYPTDTSQTFGAVAIVPGYTALFADEEAWMGPRLASFGFVVIGIETNSRDDWDIARGEQLLAALDYLVHHSPVRARIDANRLAVVGHSMGGGGALFAATQRPSLKAVVALAPYFPSGSLAAIRVPTMIIGGQDDTVVTPSYLDDLYASRPAHTPGAYLMLADADHLFATRPNTVEMRLLIPWLKIFVDHDTRYTQFLCPVADRSGIARHHVT [TEP126]	< 3
GSLAHIVMVDAYKPTKGSGASQTNPYARGPNPTAASLEASAGPFTVRSFTVSRPSGYGAGTVYYPTNAGGTVGAIAIVPGYTARQSSIKWWGPRLASHGFVVITIDTNSTFDYPSSRSSQQMAALRQVASLNGDSSSPIYGKVDTARMGVMGHSMGGGASLRSAANNPSLKAAIPQAPWDSQTNFSSVTVPTLIFACENDSIAPVNSHALPIYDSMSRNAKQFLEINGGSHSCANSGNSNQALIGKKGVAWMKRFMDNDTRYSTFACENPNSTAVSDFRTANCSLEGSGGSGAHIVMVDAYKPTK [TEP004]	< 3
DEIGQAPTSSNITGNGSFSVSTYNISSLVTGFGGGVAYYPSTAGRYPVVAVSPGFTARWSSISWIGPRLASWGFVVVGIETNSVYDQPASRGSQLLAALNWAVNSAPSAITSRADGSRRGVAGHSMGGGGTLEALAADTTGNVKAGVPLAPWNSDKTWNNVNEPVQIIGGESDTVAGVSSHSIPFYNSLGGSKSYVELNGASHFFPQTTNATTSRALVSWFKRWLNQDARFTPFTCGYGGTAVSDFRTNAC [ESM177]	< 3
AANPYERGPAPTAASIAATTGPFAVASVSVPRGNGFGGGVIYYPTSTSQGTFGGVAISPGLNGTWAGIAWLGPRLASQGFVIFGIETNNLNDSPASRGTQLLAALDFLTRSSSVRTRVDASRLAVAGHSMGGGGALSAALQRPSLQAAIGNAPHLPSGSLATDRVPTLIYAMQNDTLVTPSRLTSLYNSMPATTERAYIEVAGAGHNYIGQPSTTLARTMIPWLKIFVDNDARYSQFLCPLSNQSGISQYRNSCPLISTTTLSTGVDSTSGLAVR [ESM157]	< 3
AGNPYQRGPDPTLASVAASRGTFATAQVSVPAGNGFNGGTIYYPTDSSQGTWGAVAIVPGYTALFANEEAWMGPWLASFGFVVIGIETNSRTDFDTARGTQLLAALDYLTQKSPVRDRVDSARLGVIGHSMGGGGVVYATEHRPSLKAAVALAPFSPSQDMSTDHVPTMVMGGQNDTVVTPSYLDGLYATMPASTQSDFVQLAGADHVAYTHPNTTEMRLLIPWLKIFLDDDTRYTQFLCPLMDSTGVSAYHSKCPYVPPGGSTSTPTPTPTITPTPPPSGACSATYRTVNSWSGGYQGEVTVTAGDAAINGWTVRWNLGGGQTVTQVWNGTLSTSGSTATVTNASYNGSLQASASTTFGFLANGTPSTPAITCTSP [TEP114]	6
